Protocol Details: soluble fraction after stress (log2 fold change); higher = more stays soluble; pooled small domains, quantitative proteomics;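 further: 20 min heating vs room temperature control held 20 min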
Setup Conditions: stress: 75 degC
Property Name: soluble fraction (log2)
Please respond with just the number, no unit label.

Query block: Quick one: soluble fraction (log2) of `HMHSIFPVIRSTSFPTKSNDGELFITSDHTAETRIYYALDLGNTYRLIDQKVMNEINLTESLVKETARF` ?
Result block: -1.72

Query block: Quick one: soluble fraction (log2) of `HMDDGARQLVDQLNRLIANPAVSARIIHGYLILEGRVESEWEKTRTLLLAQVAGLPVIDLITVS` ?
Result block: -2.35

Query block: Quick one: soluble fraction (log2) of `HMSTESAHLGERMLNQALRAMHIEPDQITEAHWQKLIRDYGLKKKSEILTDIGLGKRQNVMVAHQLLAMG` ?
Result block: -0.539

---

Protocol Details: soluble fraction after stress (log2 fold change); higher = more stays soluble; pooled small domains, quantitative proteomics
Setup Conditions: stress: 75 degC
Is soluble fraction (log2) at least -0.3? Then met. If not, not met.

Would you please look over these solved cases?
{"columns": ["Entry Sequence", "Group"],
 "data": [
  ["HMFDFLELGQAIQDAREKQRITREELAEELGISARHLQSVEKEGQYPSFRLFIQLVTMFHISVDQYI", "met"],
  ["HMTTTFGWENLVGEKGIAATDLHPSGWVTVKDQRVFVVSEGTFIEEGKEVEIMNVDGNRIVVREFKN", "met"],
  ["HMTLGPKQMGEAIIKNLKEKTGKSLEEWSQRILIHELTDKKEIIDFLKNDNGLGHFQALKIFEHLNGK", "met"],
  ["HMTIELAEGQHFLQISKSGAPMGNVVRDLIIQTLKITNGNQIKAAKILGISRAKLRYRIEQLGINITGKNI", "not met"],
  ["HMASPEIAFLNKFYQLSNTVNEISVMKIVKNYQEKYQQRISIEQMAKTLKTMGYAVRNNIISNIEEAPV", "not met"],
  ["HMVGGIAIGQFNVPRGSVKVTAGGRLLQEGLDYTVNYQAGRVQILDESLKNSNVPIEISTESNS", "met"],
  ["HMQSHIVPDVKSQHIAQAKALLESKQMKAVVIDSNFVKGLPAGIVLDQTPIGGARVKENRTIYLTINTL", "not met"]
]}

Query block: Determine whether measured soluble fraction (log2) meets or exceeds -0.3 for `HMTSAIAEGTVIRLTQSTNIRESMSEDAPKVATAFSGEKVTVIMSYAEGWTKVTYGDKTGYIKTELL`
Result block: not met

---

Protocol Details: soluble fraction after stress (log2 fold change); higher = more stays soluble; pooled small domains, quantitative proteomics
Setup Conditions: stress: 75 degC
Measured soluble fraction (log2) of individual entries
Please respond with just the number, no unit label.

{"columns": ["Entry Sequence", "Recorded Measurement"],
 "data": [
  ["HMNSRTLAYSDFIRKVDKGEVSAVVIDGEQVQVQTKDGQTFVTIQPQSEQMNDKLVEQLIAKDISVKAERQ", -0.0843],
  ["HMKININEASRYELMTIGGLDAGRADMLMQYRQKREISSADELKGINGFASYDTAKLQKSFEISP", -0.0573],
  ["HMTTELDTTAITPIIQKVLKANPDVVAKYKAGQQQVIGFLMGQVMRELSTKPNPKELQSLIVAQLQQA", -0.0252],
  ["HMARAVSPLEAIPGVGPRRRQQLLKQLGGMQEVARAGVEDLSRVPGISRALAQQIYDAFHGD", -0.287],
  ["HMVSLEEIINDLTSRIQTAVKMRFSDFVQNRKERVGVIVSFLGMLELVKQGIIDIKQEGHFADIEMETA", -0.347],
  ["HMYHNKFADLAGFIAFNEKNEEIFTFGKYKGQNVKEVFQRDIGYYGWLQNADFPLYTKKVFTAIQLRSR", -2.44]
]}

Query block: Quick one: soluble fraction (log2) of `HMGKKGPELNDNEKIIFNIISKENSMNLDDLKNRTELSNKQWDKAIKGLRSHELVNIEKIDDQLLIHL` ?
Result block: 0.0386

Query block: Quick one: soluble fraction (log2) of `HMLMSDEENAEFTKLYRQLVFKLHPDLNPNQTKDEENLWHKVQMAYKGGDLEEMRSLAIILDAQ` ?
Result block: 0.0885

Query block: Quick one: soluble fraction (log2) of `HMKTEKYIQVISGTVNVRSGPGTSYAEIAKIDASQIYVVTAKEGEWLKISLANGTIGYVAGWLVKEVTG` ?
Result block: -1.47

Query block: Quick one: soluble fraction (log2) of `HMSNDRSYLARLQDYYAEHRALPSYASIGALLGLRSKSSVAALVARLKLAGFVESTPDRRLAPTRRFF` ?
Result block: -4.01

Query block: Quick one: soluble fraction (log2) of `HMLTEREQDTLNFIRQYIDEQGRSPLVSEIAKGLGIKSQGTTHRYIQALVDAGLLERHVGRTRGLHLT` ?
Result block: -0.0653

---

Measured soluble fraction (log2) of individual entries
Protocol Details: soluble fraction after stress (log2 fold change); higher = more stays soluble; pooled small domains, quantitative proteomics
Setup Conditions: stress: 75 degC
Please respond with just the number, no unit label.

Example sequences with recorded soluble fraction (log2):
{"columns": ["Entry Sequence", "soluble fraction (log2)"],
 "data": [
  ["HMGNEVMYRQDLSEQELLSFIKKYTGQDEVTHIVVGAPKQRDNTPSPVETKITPFVVQLKAQFPDVNVV", 0.0976],
  ["HMIERLVVSPAAGVFTKKMSVENNTRIDVGHVLGHVGETEVRSPFAGILQNYIAVDGERLTAHQPIAWLRS", -0.0936],
  ["HMNRKLKAKATREKIYKSAEKLFSQNDYNKVSVDAIVEAAGVAKGSFYVHFASKDALIAMLINDH", -0.448],
  ["HMSETLESYTTRLKQLEEIADSFQGVDKTFAIQAGREIRVMVVPEQISDDDMILLARDISNQIEENLDY", -0.234],
  ["HMTYTGTVTGVDEGGLRVRSSTSTENTSNVITKVYTGDTFDVLDTVYNGSAKWYKIGFTYNGTYTYGYVSA", -1.51]
]}

Query block: Quick one: soluble fraction (log2) of `HMRLSDSEFESIENAIKEKLENSALTADVLVKELSFDEDKIWKVIRWLEDAEKISEDEAGTLLWKPR` ?
Result block: -0.0971

Query block: Quick one: soluble fraction (log2) of `HMKNSMANVQARREKILSAVDQSEPVAVEGLAQRFNVSITTLRRDLKALSDMGQVKWHHGLVERT` ?
Result block: -0.229

---

Protocol Details: soluble fraction after stress (log2 fold change); higher = more stays soluble; pooled small domains, quantitative proteomics
Setup Conditions: stress: 75 degC
Property Name: soluble fraction (log2)
Please respond with just the number, no unit label.

Example sequences with recorded soluble fraction (log2):
{"columns": ["Entry Sequence", "soluble fraction (log2)"],
 "data": [
  ["HMVELNDNEKIVYDILKETEKIHIDELTAKVQLTQSILSGALVQMEMKGMIVSLPGKMYKLL", -1.65],
  ["HMRAAEPTTDAQRDRRRRIVLTAMTMLQERGYDEIQMRDVAQQAGVALGTLYRYFPSKEQLFAHVLVE", -1.71],
  ["HMYPMQNYSTIIGVIELRQQSVGYATTQKRYGIGSSTVTLIMKRFKELGLTLEELRAMPPKAVEVAFYPPE", -1.69],
  ["HMEYSNLGEALRRLSEIDLQIILLKYSHGFSIKEISKILDIKEVNLYKRNKRALNKLKKILAEMEVLSN", -0.34]
]}

Query block: Quick one: soluble fraction (log2) of `HMESGSSKINQDILETFTRGKKSLSISDISRLSGHHRHTVARYLDNLVSSGKLEMRQHGQKKKYYLSDIQP` ?
Result block: -0.314

Query block: Quick one: soluble fraction (log2) of `HMEGNLVEIFEDAFGRTMSTMDIEYINQFKRTGYDDEMIVSALREAVKSNALSFRYIERVLENWAHS` ?
Result block: -0.881

---

Protocol Details: soluble fraction after stress (log2 fold change); higher = more stays soluble; pooled small domains, quantitative proteomics
Setup Conditions: stress: 75 degC
Measured soluble fraction (log2) of individual entries
Please respond with just the number, no unit label.

{"columns": ["Entry Sequence", "soluble fraction (log2)"],
 "data": [
  ["HMSGIESIVIPLKGLDFDMISSTLTPQLKQAIKYDKQSDSIILVGTNAKVNIIAKQVNAMVEVYKLKT", -1.81],
  ["HMSNGYVTAKTTVNVRKSASESGERLGVIYQGDKLELVMNQADGWTKVKYKGQTAYVKSEFM", -1.27]
]}

Query block: Quick one: soluble fraction (log2) of `HMVVKLTQEQDRFIKTFNDKSLAFYYISSWGWGSFLRNGIGGVYEGDKTPFTLDEKEKMLNAIINGYEVI` ?
Result block: -2.02

Query block: Quick one: soluble fraction (log2) of `HMESSSQLGFELARLVESGNDEEARALVQAKELSEADERKWLYHLGNLLHAAGRPLQASAIWREVGT` ?
Result block: 0.0141

Query block: Quick one: soluble fraction (log2) of `HMDEQLAWLYRKINAFSEIDKALILLYLEDKKYDEIAETLGISSVNARVKMNRIKKRLKEMINDR` ?
Result block: -3.14

Query block: Quick one: soluble fraction (log2) of `HMTGIVVVDVVGQVGRPGLVSLPAGSRVADAITAAGGATPEADVSLLNQARLVIDGEQIRVPRPGEVIAA` ?
Result block: -0.0555

Query block: Quick one: soluble fraction (log2) of `HMRRRKPLVSYEYGTRVYAPSEGEPRYRVVATDADGQRVFAKFSSEEAARHRAREIEGRLATS` ?
Result block: -0.26

Query block: Quick one: soluble fraction (log2) of `HMNMAEETLDTAAKILKAAEEEFMEKGYGNAKMMSIAARAGVSHSMLHYYYRSKGKLFQMIFDEKA` ?
Result block: -1.41

Query block: Quick one: soluble fraction (log2) of `HMFKLPRTIGTFEDSDVVIGAGKFGPYIMHNKKFVSLPKSEDPLTIGLERAIELISAKREQEKQRH` ?
Result block: 0.265

Query block: Quick one: soluble fraction (log2) of `HMEISNWLEEIGLSRYTETLSEFPLEDLVEFTDDDFKELGVLTPHRKKLLAAIATLNNDASSN` ?
Result block: -0.245

Query block: Quick one: soluble fraction (log2) of `HMNKMIDAPDLTGLSLEDAKLVLEANKLQLGTVSHEPSDKPEDVVISQDPMEGQEIQQGGKVNLVVSYGD` ?
Result block: 0.305

Query block: Quick one: soluble fraction (log2) of `HMKDESYALGTRLLSHALGKTKLEDLAQEKIDEVVQQSGNKTLEQLLTNIGLGNALSIGIARQLT` ?
Result block: 0.345

Query block: Quick one: soluble fraction (log2) of `HMEAVGLTPRQGDVLALLLQGKPNKLIARDLNLSVETVKDHVAAVLRALGVSTRTQAVLAVSQMQQQAAQ` ?
Result block: -0.444

Query block: Quick one: soluble fraction (log2) of `HMVSLSENQKIVLESLNTAMSARELMEILNLSDISHFRRNILNPLLLEGLIVRTKPDKPKSSKQKYIKANF` ?
Result block: -1.69

Query block: Quick one: soluble fraction (log2) of `HMPTPASGSSGYINATNVNFRTGPATSYKSISKLAKNTAVTILGTSGNWYKVTVGSLGKNGYVFATYVTVS` ?
Result block: -2.23

Query block: Quick one: soluble fraction (log2) of `HMATAEETTPLWARNRLSHAIFGPGSVTGEDERSFEVAFDNGDTLNFSKKSAHLYFTAMSSR` ?
Result block: -0.169
